Listing of entries alongside the reported protein stability index.
B1: TFE3 (parent)
chain: FPSDHLGDLGDPFHLGLEDILMEE

- Variants of: B1
- procedure_details: protein stability index of a GFP-peptide fusion (GPS, HEK-293T) (PSI 1-6); higher = more stable;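 further: lentivirally expressed fusions sorted by FACS into six bins by GFP to DsRed ratio, PSI derived from sequencing read proportions per bin multiplied by bin number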
- measurement_setup: c terminus: a fixed tail appended

Sample records with protein stability index:
INSERT INTO assay_data (query_sequence, measure_name, observed_measurement) VALUES
  ('FPSDHLGDLGDPFHLGLEDILMHE [E23H]', 'protein stability index', 2.86),
  ('FPSDHLGDTGDPFHLGLEDILMEE [L9T]', 'protein stability index', 3.79),
  ('FPSPHLGDLGDPFHLGLEDILMEE [D4P]', 'protein stability index', 3.11),
  ('FPSDHLGDLGDPFHLGLEIILMEE [D19I]', 'protein stability index', 2.92),
  ('FPSDHLGDLGDPFHLGLEDILMPE [E23P]', 'protein stability index', 2.76);

I'd like to know its protein stability index. The variant in question is FPSDHLGDLGDPFHLGFEDILMEE [L17F]
3.1

I'd like to know its protein stability index. The variant in question is FPSDPLGDLGDPFHLGLEDILMEE [H5P]
3.68

I'd like to know its protein stability index. The variant in question is RPSDHLGDLGDPFHLGLEDILMEE [F1R]
4.64

I'd like to know its protein stability index. The variant in question is FNSDHLGDLGDPFHLGLEDILMEE [P2N]
4.24

I'd like to know its protein stability index. The variant in question is FPSDHLGDLGAPFHLGLEDILMEE [D11A]
3.23

I'd like to know its protein stability index. The variant in question is FPSDHLGDLGDPFHLGLGDILMEE [E18G]
2.86

I'd like to know its protein stability index. The variant in question is FPSDHLGDLGDPFHLLLEDILMEE [G16L]
2.4

I'd like to know its protein stability index. The variant in question is FPSDHLPDLGDPFHLGLEDILMEE [G7P]
4.3

I'd like to know its protein stability index. The variant in question is FPSDHLGDLGDPFHLGLEDILPEE [M22P]
3.71

I'd like to know its protein stability index. The variant in question is FPSDHLWDLGDPFHLGLEDILMEE [G7W]
2.73

I'd like to know its protein stability index. The variant in question is FPSDHLGDLGDPFHLGLEDYLMEE [I20Y]
3.88

I'd like to know its protein stability index. The variant in question is FPEDHLGDLGDPFHLGLEDILMEE [S3E]
3.97

I'd like to know its protein stability index. The variant in question is FPSDHDGDLGDPFHLGLEDILMEE [L6D]
4.09

I'd like to know its protein stability index. The variant in question is FPSDHWGDLGDPFHLGLEDILMEE [L6W]
1.75

Source listed as the supplement of paper PMC10567573.
